FYI, the data here is from patent US20240316038A1.

# Tested on: APOL1 G2 (Homo sapiens, UniProt O14791, DEL388-389)
# Construct: expressed in transfected cells; host or cells: HEK293 T-REx clonal lines: HEK T-REx/GCaMP6f/APOL1 G2 K6.3 in A1, HEK293/T-REx APOL1 G2/clone #2 in A2
# Sequence (O14791 with tags, fused parts or gaps DEL388-389): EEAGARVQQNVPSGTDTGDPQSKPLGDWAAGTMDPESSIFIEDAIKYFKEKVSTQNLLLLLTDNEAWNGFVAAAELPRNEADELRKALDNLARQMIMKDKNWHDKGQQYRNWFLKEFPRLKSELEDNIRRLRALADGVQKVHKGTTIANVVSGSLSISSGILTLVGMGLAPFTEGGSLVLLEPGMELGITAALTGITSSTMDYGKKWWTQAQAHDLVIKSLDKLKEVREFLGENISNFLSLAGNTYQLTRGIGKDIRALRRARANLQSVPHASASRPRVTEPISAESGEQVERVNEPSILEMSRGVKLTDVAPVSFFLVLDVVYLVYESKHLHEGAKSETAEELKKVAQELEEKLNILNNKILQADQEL
# Test: APOL1 calcium transport inhibition assay (GCaMP6f calcium influx, FLIPR) in HEK T-REx/GCaMP6f/APOL1 G2 K6.3 cells
# Type: cell-based
# Condition: inhibition of APOL1-mediated calcium influx; geometric mean of at least 2 assay runs, † = single assay run (technical duplicate)
// values below are reported AC50

>  <Molecule>
CS(=O)(=O)c1ccc(CCC2CCCN(CCc3cccc(Cl)c3)C2)cc1 (single isomer, unassigned) [Compound 40]

>  <Value qualifier>
<

>  <AC50 [nM]>
118

$$$$
>  <Molecule>
C[C@@H]1CN(CC(O)c2cccc(Cl)c2)C[C@H]1COc1ccc(S(C)(=O)=O)cc1 (single isomer, unassigned) [Compound 125]

>  <Value qualifier>
=

>  <AC50 [nM]>
2350

$$$$
>  <Molecule>
C[C@@H]1CN(CCc2cccc(C#N)c2)C[C@H]1COc1ccc(S(=O)(=O)C2CNC2)cc1

>  <Value qualifier>
=

>  <AC50 [nM]>
104

$$$$
>  <Molecule>
C[C@H]1CN(CCc2cccc(Cl)c2)C[C@H]1COc1ccc(S(C)(=O)=O)cc1 (single isomer, unassigned)

>  <Value qualifier>
=

>  <AC50 [nM]>
1990

$$$$
>  <Molecule>
CC1CC(COc2ccc(S(C)(=O)=O)cc2)CN1CCc1cccc(C#N)c1 (single isomer, unassigned) [Compound 138]

>  <Value qualifier>
=

>  <AC50 [nM]>
2500

$$$$
>  <Molecule>
C[C@@H]1C[C@H](COc2ccc(S(=O)(=O)C3CNC3)cc2)CN1CCc1cccc(C#N)c1

>  <Value qualifier>
=

>  <AC50 [nM]>
311

$$$$
>  <Molecule>
COC(CN1CCC[C@@H](COc2ccc(S(C)(=O)=O)cc2)C1)c1cccc(Cl)c1 (single isomer, unassigned) [Compound 25]

>  <Value qualifier>
=

>  <AC50 [nM]>
469

$$$$
>  <Molecule>
C[C@H]1CN(CCc2cccc(Cl)c2)C[C@@H]1COc1ccc(N(C)S(C)(=O)=O)cc1 (racemic) [Compound 45]

>  <Value qualifier>
=

>  <AC50 [nM]>
71.2

$$$$
>  <Molecule>
C[C@@H]1C[C@H](COc2ccc(S(C)(=O)=O)cc2)CN1CC(O)c1cc(C#N)cc(C#N)c1 (single isomer, unassigned) [Compound 119]

>  <Value qualifier>
=

>  <AC50 [nM]>
784

$$$$
>  <Molecule>
CS(=O)(=O)c1ccc(OC[C@@H](O)CN2CCCCC2Cc2cccc(Cl)c2)cc1 (some centres unmarked) [Compound 62]

>  <Value qualifier>
=

>  <AC50 [nM]>
396

$$$$
>  <Molecule>
CN(c1ccc(OC[C@@H](O)CN2CCOC(c3cccc(Cl)c3)C2)cc1)S(C)(=O)=O (single isomer, unassigned) [Compound 81]

>  <Value qualifier>
>

>  <AC50 [nM]>
25000

$$$$
>  <Molecule>
C[C@H]1CN(CCc2cccc(Cl)c2)C[C@@H]1COc1ccc(N(C)S(C)(=O)=O)cc1 (single isomer, unassigned) [Compound 47]

>  <Value qualifier>
=

>  <AC50 [nM]>
434

$$$$
>  <Molecule>
CC1CC(COc2ccc(S(C)(=O)=O)cc2)CN1CCc1cc(Cl)cc(C#N)c1 (single isomer, unassigned) [Compound 201]

>  <Value qualifier>
=

>  <AC50 [nM]>
620

$$$$
>  <Molecule>
C[C@@H]1CN(CC(O)c2cc(C#N)cc(C#N)c2)C[C@H]1COc1ccc(S(C)(=O)=O)cc1 (some centres unmarked) [Compound 129]

>  <Value qualifier>
=

>  <AC50 [nM]>
1040

$$$$
